- method-description: PK/PD analysis of P1 (three-compartment model, indirect response model incorporating rebound)
- Assay type: in vivo, human
- cond: male, human, plasma, intravenous; three-compartment model, doses 0.01, 0.1, 1 mg; ± standard error
property-name: Vd (L/kg)
Kindly provide the numeric value in L/kg only, without the unit symbol.

Request: Give a short answer stating reported Vd for Cc1c(Cl)cc(S(=O)(=O)[O-])cc1NC(=O)NC[C@H](N)C(=O)O.[Na+] [Compound A1] .
Result: 0.0909

---

- method-description: PK/PD analysis of P1 (three-compartment model, indirect response model incorporating rebound)
- Type: in vivo, human
- cond: male, plasma, intravenous; human, assumed effective dose 0.1 mg/man, from simultaneous fitting of all doses
- Description: A PK/PD analysis was conducted to estimate the clinically effective dose based on the results from P1. The dose of 2.5 mg seemed to be excessive and thus was eliminated from the analysis. […] Based on the results of PK of the three given doses (0.01 mg, 0.1 mg and 1 mg) in P1, the three given doses were simultaneously analyzed using a three-compartment model to calculate the PK parameters (FIG. 5 and Table 2). […]
property-name: C0 (nM)
Kindly provide the numeric value in nM only, without the unit symbol.

Request: Give a short answer stating reported C0 for Cc1c(Cl)cc(S(=O)(=O)[O-])cc1NC(=O)NC[C@H](N)C(=O)O.[Na+] .
Result: 43.6

---

- method-description: Phase I/II clinical trial, single intravenous administration
- Format: in vivo, human
- cond: human, plasma, iv; single i.v. 0.025-0.8 mg; read-out: t½
property-name: half-life

Request: Give a short answer stating reported half-life for Cc1c(Cl)cc(S(=O)(=O)[O-])cc1NC(=O)NC[C@H](N)C(=O)O.[Na+] [Compound A1] .
Result: 65 to 122 h

---

- method-description: Emetogenicity in dogs (crossover, intravenous bolus)
- cond: male, beagle, dog, in vivo, 1 mg/kg (no vomiting case)
property-name: C0 (µM)
Kindly provide the numeric value in µM only, without the unit symbol.

Request: Give a short answer stating reported C0 for Cc1c(Cl)cc(S(=O)(=O)[O-])cc1NC(=O)NC[C@H](N)C(=O)O.[Na+] .
Result: 18.8
